System: Caco-2
Assay: cell viability relative to DMSO; higher = less toxic
Conditions: 72 h; 10 nM
cell viability for assorted compounds
observable: cell viability (%)

>>> df
                                    compound  observed_value
 0              O=C1c2c(O)cccc2Cc2cccc(O)c21            95.8
 1  CCCCCCCCCCC[C@@H](C[C@@H]1OC(=O)[C@H]1CCCCCC)OC(=O)[C@H](CC(C)C)NC=O            98.5
 2                    NC(=O)NO [hydroxyurea]              87
 3  CCNC(=O)Nc1ccc(-c2nc3c(c(N4CCOC[C@@H]4C)n2)CCN(C2COC2)C3)cc1            95.7
 4              CN(C)CCCN1c2ccccc2Sc2ccccc21            98.3
 5  CC(C)c1c(NC(=O)Nc2ccc(Cl)cc2)c(=O)n(-c2ccccc2)n1C             105
 6  CCOC(=O)C1=C(C)NC(=S)NC1c1cccc(O)c1 (stereo unspecified)            94.6
 7  CC(=O)N[C@@H](CSC/C=C(\C)CC/C=C(\C)CCC=C(C)C)C(=O)O            98.1
 8  NS(=O)(=O)c1cc(Cl)c(Cl)c(S(N)(=O)=O)c1 [diclofenamide]             104
 9  CC(C)C[C@H](NC(=O)N1CCCCCC1)C(=O)N[C@H](Cc1cn(C)c2ccccc12)C(=O)N[C@H](Cc1ccccn1)C(=O)O            82.5
10  CC1(C)OC2(C)C(O)CC1CC2O (stereo unspecified)            92.1

----------
Tested on: Calu-3
Assay: cell viability relative to DMSO; higher = less toxic
Details: 72 h; 1000 nM
observable: cell viability (%)

                                   compound      observable  observed_value
0  Cc1cc(Nc2cc(N3CCN(C)CC3)nc(Sc3ccc(NC(=O)C4CC4)cc3)n2)n[nH]1  cell viability            89.1
1  O=C(c1ccc(F)cc1)N1CCC[C@H](c2nc(-c3ccc(F)cc3)no2)C1  cell viability            98.2
2  OC[C@H]1O[C@@H](n2cnc3c(NC4CCCC4)nc(Cl)nc32)[C@H](O)[C@@H]1O  cell viability            92.6
3  CCc1ccc(CCOc2ccc(CC3SC(=O)NC3=O)cc2)nc1 (stereo unspecified)  cell viability             106
4  CCCCN1CCCC1CNC(=O)c1cc(C#N)c2ccccc2c1OC (stereo unspecified) [nafadotride]  cell viability             105
5  CC(=O)Nc1ccc(NC(=S)NC(=O)c2ccc(C(C)(C)C)cc2)cc1  cell viability            90.9
